Biological target: gp120 of viral strain pREJO.c/2864 cl2 (HIV, strain pREJO.c/2864 cl2)
Test: cell-based or functional assay
*1 amine or outer side, *2 acyl side, *3 side chain or, on linkers, in order; H or OH if unused. [ ]: non-standard residue; d: D form. U1 = 4-cyclohexylmethoxy-L-phenylalanine, O=C([C@H](Cc1ccc(OCC2CCCCC2)cc1)N[*:1])[*:2]; Bip = N[C@@H](Cc1ccc(-c2ccccc2)cc1)C(=O)O; Tpa = thiopropionic acid
attribute.measured: EC50 (antiviral activity, TZM-bl cells, luciferase) (nM)

[
  {
    "binder": "Tpa-NLHKCQLRCSSLGLLGRCA[dP]T[U1]CACV-NH2 (disulfide (positions not given here)) [mCD4.2]",
    "recorded.number": 76
  },
  {
    "binder": "Tpa-NLHKCQLRCSSLGLLGRCAGS[Bip]CACV-NH2 (disulfide (positions not given here); also: three disulphide bridges, pairing not given here) [mCD4.1]",
    "recorded.number": 108
  },
  {
    "binder": "mCD4.3-PS1 (not fully specified; N-terminal gamma-aminobutyric acid (gammaAbu) acylated with 3-thiopropionyl (from SATP); all six Tyr are sulfotyrosine (YSO3); N-terminal Tpa; D-proline at position 21; U1 (4-cyclohexylmethoxy-L-phenylalanine) at position 23; C-terminal amide; Lys5 N-epsilon carries the PEO2-maleimide linker bound to the thiol of the PS1 chain) peptide 1: NLHKCQLRCRSLGLLGRCAPTFCACV peptide 2: SYDYSYDYSYDYS",
    "recorded.number": 0.28
  },
  {
    "binder": "Tpa-NLHKCQLRCRSLGLLGRCA[dP]T[U1]CACV-NH2 (disulfide (positions not given here)) [mCD4.3]",
    "recorded.number": 46
  },
  {
    "binder": "mCD4.1-PS1 (N-terminal gamma-aminobutyric acid (gammaAbu) acylated with 3-thiopropionyl (from SATP); all six Tyr are sulfotyrosine (YSO3); N-terminal Tpa (thiopropionic acid); Bip at position 23; C-terminal …; Lys5 N-epsilon carries the PEO2-maleimide linker bound to the thiol of the PS1 chain) peptide 1: NLHKCQLRCSSLGLLGRCAGSFCACV peptide 2: SYDYSYDYSYDYS",
    "recorded.number": 0.66
  },
  {
    "binder": "mCD4.2-PS1 (not fully specified; N-terminal gamma-aminobutyric acid (gammaAbu) acylated with 3-thiopropionyl (from SATP); all six Tyr are sulfotyrosine (YSO3); N-terminal Tpa; D-proline at position 21; U1 (4-cyclohexylmethoxy-L-phenylalanine) at position 23; C-terminal amide; Lys5 N-epsilon carries the PEO2-maleimide linker bound to the thiol of the PS1 chain) peptide 1: NLHKCQLRCSSLGLLGRCAPTFCACV peptide 2: SYDYSYDYSYDYS",
    "recorded.number": 0.27
  }
]
